Molecular target: T1, TRKA protein with a histidine tag (human, UniProt P04629 33-423, limits assumed)
T1 construct: it is put last here only for order; also called TRKA (50 µg/ml, 75 kDa, provided by HEC Labs); not shown: histidine tag
T1 sequence (P04629 33-423 limits assumed): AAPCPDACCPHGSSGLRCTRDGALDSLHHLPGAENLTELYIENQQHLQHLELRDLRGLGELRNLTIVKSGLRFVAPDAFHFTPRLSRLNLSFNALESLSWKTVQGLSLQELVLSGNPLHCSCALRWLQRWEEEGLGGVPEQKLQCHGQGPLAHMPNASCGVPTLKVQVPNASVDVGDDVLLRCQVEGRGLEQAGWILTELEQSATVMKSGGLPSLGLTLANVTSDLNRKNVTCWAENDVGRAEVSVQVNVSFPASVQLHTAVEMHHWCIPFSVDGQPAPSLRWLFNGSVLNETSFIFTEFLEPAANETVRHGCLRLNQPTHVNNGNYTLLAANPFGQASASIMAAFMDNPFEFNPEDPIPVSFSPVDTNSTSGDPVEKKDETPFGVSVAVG
Assay: BLI (Fortebio Octet RED96), His-tagged TRKA on Ni-NTA sensor, antibody 80-2.93 nM
Protocol: They were added to each well of the sample plate. […] The KD value is the equilibrium dissociation constant between the antibody and its antigen, and the KD value is inversely proportional to the affinity. The KD value is related to the antibody concentration (the amount of antibody required for a particular experiment). The lower the KD value (the lower the concentration), the higher the affinity of the antibody. […]
MEASURE: kon
The answer should read as a number with its unit following.

The following binders have reported results that may help.
{"columns": ["BINDER", "MEASURE", "RESULT"],
 "data": [
  ["21E5 chimeric antibody (antibody, human IgG4 S228P, kappa, F234A L235A, V domains shown, expressed in CHO cells) VH: QVQLQQSGAELMKPGASMKISCKATGYTFSTYWIEWVKQRPGHGLEWIGENLPGRHITNYNEKFKGKATFTADTSSNTAYMQLSSLTSEDSAVYYCARGRGTYYFDYWGQGTPLTVSS VL: DIVMTQAAFSTPVTLGTSASISCRSSQSLLHSNGITYLYWYLQKPGQSPQLLIYQMSNLASGVPDRFSSSGSGTDFTLRISRVEAEDVGVYYCAQNLEFPFTFGSGTKLEIKR", "kon", "1.01e+06 M⁻¹ s⁻¹"],
  ["1B9 chimeric antibody (antibody, human IgG4 S228P, kappa, F234A L235A, V domains shown, expressed in CHO cells) VH: QVHLQQSGAELMKPGASVKISCKATGYTFNIYWIDWVKQRPGHGLEWIGEILPGSGNTHYNENFKGKATMTADTSSNTAYMQLTSLTSEDSAVYYCARTDGRGYFDYWGQGTTLTVSS VL: DIVLTQSPASLVVSLGQRATISCRTSKSVSSSAYSYMHWYQQKPGQPPKVLIYLASNLESGVPARFSGSGSGTDFTLNIHPVEEEDAATYYCQHSRELPFTFGSGTKLEIKR", "kon", "1.01e+06 M⁻¹ s⁻¹"]
]}

Next item in the queue.
Query: State the recorded kon for this entry: 2A5 chimeric antibody (antibody, human IgG4 S228P, kappa, F234A L235A, V domains shown, expressed in CHO cells) VH: EVQLQQSGPELVKPGASMKISCKASGYSFTGYTMNWVKQSHGKNLEWIGLINPYNGGTNYNQKFKGKATLTVDKSSSTAYMELLSLTSEDSAVYYCAFSYYGSRGFYFDYWGQGTTLTVSS VL: QIVLTQSPALMSASPGEKVTMTCSATSSVSYIYWYQQKPRSSPKPWIYLTSNLASGVPARFSGSGSGTSYSLTISSMEAEDAATYYCQQWSSNPPTFGGGTKLEIKR
Response: 222000 M⁻¹ s⁻¹
